Test system: NCI-H2347 (Lung Adenocarcinoma);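 further: after 72 h of two-drug dosing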
Assay: Bliss excess, mean over the matrix (fraction); higher = more synergy
Think of -0.05 as a floor: if Bliss excess stands on it or above, it is True; beneath it, False.

**Q:** # bool: Bliss excess of Cc1cc2ncnn2cc1Nc1ncc2c(n1)n(C1CCOCC1)c(=O)n2C [AZD7648] + CN(C)CCCOc1ccc(-c2ccc3ncc4c(c3c2)n(C2CCOCC2)c(=O)n4C)cn1 [AZD0156] (first compound max 10 µM, 7x7, partner max 1 µM) >= -0.05
**A:** True

**Q:** // inclusive: Bliss excess at least -0.05? input: CN(CCO)CC[C@H](CSc1ccccc1)Nc1ccc(S(=O)(=O)NC(=O)c2ccc(N3CCC([C@@H](O)c4ccccc4-c4ccc(Cl)cc4)CC3)cc2)cc1S(=O)(=O)C(F)(F)F [AZD4320] + Cn1cnc2c(F)c(Nc3ccc(Br)cc3Cl)c(C(=O)NOCCO)cc21 [Selumetinib] (first compound max 1 µM, 7x7, partner max 3 µM)
**A:** True

====

Listing of entries alongside the reported combination Emax.
Tested on: NCI-N87 (Gastric Carcinoma)
Assay: combination Emax (second highest fraction inhibited in the dose matrix, 72 h); higher = more inhibition; extreme values may be limits of the assay
# print the numeric value only

>  <compound>
NC1(C(=O)N[C@@H](CCO)c2ccc(Cl)cc2)CCN(c2ncnc3[nH]ccc23)CC1 [Capivasertib] + COc1nnc2ccc(N3CCC(c4ccc(OCCN5CCN(C)C(=O)[C@H]5C)cc4)CC3)nn12 [AZD5153] (first compound max 10 µM, 7x7, partner max 1 µM)

>  <combination Emax>
0.772

$$$$
>  <compound>
CN(CCO)CC[C@H](CSc1ccccc1)Nc1ccc(S(=O)(=O)NC(=O)c2ccc(N3CCC([C@@H](O)c4ccccc4-c4ccc(Cl)cc4)CC3)cc2)cc1S(=O)(=O)C(F)(F)F [AZD4320] + CN(C)CCCOc1ccc(-c2ccc3ncc4c(c3c2)n(C2CCOCC2)c(=O)n4C)cn1 [AZD0156] (first compound max 1 µM, 7x7, partner max 1 µM)

>  <combination Emax>
0.477

$$$$
>  <compound>
NC1(C(=O)N[C@@H](CCO)c2ccc(Cl)cc2)CCN(c2ncnc3[nH]ccc23)CC1 [Capivasertib] + CC(=O)c1c(C)c2cnc(Nc3ccc(N4CCNCC4)cn3)nc2n(C2CCCC2)c1=O [Palbociclib] (first compound max 10 µM, 7x7, partner max 10 µM)

>  <combination Emax>
0.76

$$$$

Pending compound:
Item: C[C@@H](Oc1cc(-c2cnn(C3CCNCC3)c2)cnc1N)c1c(Cl)ccc(F)c1Cl [Crizotinib] + Cn1cnc2c(F)c(Nc3ccc(Br)cc3Cl)c(C(=O)NOCCO)cc21 [Selumetinib] (first compound max 10 µM, 7x7, partner max 10 µM) | combination Emax: 0.383

====

Test system: BT-20 (Breast Carcinoma)
Experiment: combination Emax (second highest fraction inhibited in the dose matrix, 72 h); higher = more inhibition; extreme values may be limits of the assay
Catalogue of combination Emax values
Hey, just send me the number, nothing else.

>  <molecule>
NC1(C(=O)N[C@@H](CCO)c2ccc(Cl)cc2)CCN(c2ncnc3[nH]ccc23)CC1 [Capivasertib] + COc1nnc2ccc(N3CCC(c4ccc(OCCN5CCN(C)C(=O)[C@H]5C)cc4)CC3)nn12 [AZD5153] (first compound max 10 µM, 7x7, partner max 1 µM)

>  <combination Emax>
0.813

$$$$
>  <molecule>
CC1(C)CCC(CN2CCN(c3ccc(C(=O)NS(=O)(=O)c4ccc(NCC5CCOCC5)c([N+](=O)[O-])c4)c(Oc4cnc5[nH]ccc5c4)c3)CC2)=C(c2ccc(Cl)cc2)C1 [Venetoclax] + C=CCn1c(=O)c2cnc(Nc3ccc(N4CCN(C)CC4)cc3)nc2n1-c1cccc(C(C)(C)O)n1 [AZD1775] (first compound max 1 µM, partner max 1 µM)

>  <combination Emax>
0.672

$$$$

Summary for this molecule, CC(=O)c1c(C)c2cnc(Nc3ccc(N4CCNCC4)cn3)nc2n(C2CCCC2)c1=O [Palbociclib] + CN(CC[C@H](CSC1=CC=CC=C1)NC2=C(C=C(C=C2)S(=O)(=O)NC(=O)C3=CC=C(C=C3)N4CCC(CC4)[C@H](C5=CC=CC=C5C6=CC=C(C=C6)Cl)O)S(=O)(=O)C(F)(F)F)CCO [AZD4320] (first compound max 10 µM, 7x7, partner max 1 µM) : combination Emax is 0.546
